The measurements presented in this section are drawn from the METLIN SMRT retention time set (Domingo-Almenara et al. 2019).

Assay: gradient 5% acetonitrile 3 min, to 50% in 2 min, to 85% in 15 min, held 3 min, 100 µL/min
Conditions: column: Zorbax Extend-C18 2.1 x 50 mm; eluents: water / acetonitrile, 0.1% formic acid
experimentalReadout: RP-LC retention time

[[record]]
molecule = "CC(=O)Nc1ccc(OCC(=O)NCc2cc(F)ccc2F)nc1"
endpointvalue = "681 s"

[[record]]
molecule = "CCN1CCN(c2cc(C)c3cc(NC(=O)Cc4cccs4)ccc3n2)CC1"
endpointvalue = "578 s"

[[record]]
molecule = "O=C(NCc1cccc2ccccc12)NCc1nnnn1-c1ccccc1"
endpointvalue = "751 s"

[[record]]
molecule = "CCc1cc(=O)n(CC(=O)NCc2cccs2)c(-c2ccccc2)n1"
endpointvalue = "1040 s"

[[record]]
molecule = "CCCCNc1ncc(C(=O)O)c(-c2ccncc2)n1"
endpointvalue = "612 s"

[[record]]
molecule = "Cc1cccc(NC(=O)c2cc(C)n3nccc3n2)c1C"
endpointvalue = "995 s"

[[record]]
molecule = "COc1ccc(CC2C(=O)Nc3ccccc32)cc1Cl (stereo not given)"
endpointvalue = "832 s"

[[record]]
molecule = "O=c1c(NCCc2ccc(Cl)cc2)nccn1-c1ccc2c(c1)OCO2"
endpointvalue = "870 s"

[[record]]
molecule = "CC(NC(=O)Cc1c(F)cccc1Cl)C(=O)N1CCN(c2ccccn2)CC1 (stereo not given)"
endpointvalue = "599 s"

[[record]]
molecule = "COc1ccc(NC(=O)N2CCC3(C2)C(=O)N(C)c2ccc(OC)cc23)cc1 (stereo not given)"
endpointvalue = "732 s"


---

Assay: gradient 5% acetonitrile 3 min, to 50% in 2 min, to 85% in 15 min, held 3 min, 100 µL/min
Conditions: column: Zorbax Extend-C18 2.1 x 50 mm; eluents: water / acetonitrile, 0.1% formic acid
experimentalReadout: RP-LC retention time (s)

[[record]]
compound = "CCNC(=O)C1CCCN(c2nc3ncn(CC(=O)Nc4ccc(OCC)cc4)c(=O)c3s2)C1 (configuration not stated)"
experimentalreadout = "RP-LC retention time"
unitsofmeasure = "s"
endpointvalue = 688

[[record]]
compound = "O=c1ccc(N2CCC(NS(=O)(=O)c3ccccc3C(F)(F)F)C2)n[nH]1 (configuration not stated)"
experimentalreadout = "RP-LC retention time"
unitsofmeasure = "s"
endpointvalue = 687

[[record]]
compound = "COc1cn(-c2ccc(F)cc2)nc1C(=O)NCCC1=CCCCC1"
experimentalreadout = "RP-LC retention time"
unitsofmeasure = "s"
endpointvalue = 942

[[record]]
compound = "CCN(CC)CCNC(=O)c1nn(-c2ccc(Cl)cc2)c2c1CCc1cc(OC)ccc1-2"
experimentalreadout = "RP-LC retention time"
unitsofmeasure = "s"
endpointvalue = 774

[[record]]
compound = "Cc1ccc(NC(=O)N2CCC(C(C)C(=O)Nc3cc(F)ccc3F)CC2)cc1 (configuration not stated)"
experimentalreadout = "RP-LC retention time"
unitsofmeasure = "s"
endpointvalue = 653

[[record]]
compound = "CCN1C(=O)c2cccnc2Sc2cc(CNC(=O)c3ccoc3)ccc21"
experimentalreadout = "RP-LC retention time"
unitsofmeasure = "s"
endpointvalue = 702

[[record]]
compound = "Cn1nc(C(=O)N2CCCC(C(=O)Nc3ccccc3)C2)c2c1CCN(C(=O)Cc1cccs1)C2 (configuration not stated)"
experimentalreadout = "RP-LC retention time"
unitsofmeasure = "s"
endpointvalue = 748

[[record]]
compound = "c1ccc(-c2nc(CC3CCCNC3)no2)cc1 (configuration not stated)"
experimentalreadout = "RP-LC retention time"
unitsofmeasure = "s"
endpointvalue = 609

[[record]]
compound = "CC(C)NC(=O)C1Cn2cccc2C(=O)N1 (configuration not stated)"
experimentalreadout = "RP-LC retention time"
unitsofmeasure = "s"
endpointvalue = 578

[[record]]
compound = "CC(=O)N1c2ccc(S(=O)(=O)N3CCCCC3)cc2CC1C(=O)NCCN(C)Cc1ccccc1 (configuration not stated)"
experimentalreadout = "RP-LC retention time"
unitsofmeasure = "s"
endpointvalue = 676

[[record]]
compound = "COc1cc(NC(=O)C2CCN(S(=O)(=O)c3c(C)nn(-c4ccccc4)c3C)CC2)cc(OC)c1"
experimentalreadout = "RP-LC retention time"
unitsofmeasure = "s"
endpointvalue = 848

[[record]]
compound = "COc1cccc(-c2nc3sc(C(N)=O)c(C)n3c2NC(C)(C)C)c1"
experimentalreadout = "RP-LC retention time"
unitsofmeasure = "s"
endpointvalue = 743


---

Test: gradient 5% acetonitrile 3 min, to 50% in 2 min, to 85% in 15 min, held 3 min, 100 µL/min
Settings: column: Zorbax Extend-C18 2.1 x 50 mm; eluents: water / acetonitrile, 0.1% formic acid
Entries and their RP-LC retention time
experimentalReadout: RP-LC retention time (s)

[[record]]
molecule = "CC(C)n1c(=O)sc2cc(S(=O)(=O)N3CCC(C(=O)N4CCc5ccccc54)CC3)ccc21"
experimentalreadout = "RP-LC retention time"
unitsofmeasure = "s"
endpointvalue = 1020

[[record]]
molecule = "CC1=C(c2ccc(F)cc2)S(=O)(=O)N=C1N1CCCN(C(=O)NCC(C)C)CC1"
experimentalreadout = "RP-LC retention time"
unitsofmeasure = "s"
endpointvalue = 793

[[record]]
molecule = "O=C(Cn1nc(N2CCCCCC2)c2ccccc2c1=O)Nc1ccccc1F"
experimentalreadout = "RP-LC retention time"
unitsofmeasure = "s"
endpointvalue = 1120

[[record]]
molecule = "Cc1nn2c(ncc3c(=O)n(-c4nccs4)ccc32)c1-c1ccccc1"
experimentalreadout = "RP-LC retention time"
unitsofmeasure = "s"
endpointvalue = 1170

[[record]]
molecule = "Cc1cccc(N2CCN(C(=O)c3cn(-c4ccc(C#N)cc4)cn3)CC2)c1"
experimentalreadout = "RP-LC retention time"
unitsofmeasure = "s"
endpointvalue = 759

[[record]]
molecule = "COc1ccc(C)cc1NC(=O)C1N(C(C)C)C(=O)C12CCCC2 (stereo not given)"
experimentalreadout = "RP-LC retention time"
unitsofmeasure = "s"
endpointvalue = 844

[[record]]
molecule = "O=S(=O)(Nc1ccc(F)cc1)c1cccn2cnnc12"
experimentalreadout = "RP-LC retention time"
unitsofmeasure = "s"
endpointvalue = 659

[[record]]
molecule = "Cc1ccc2oc(-c3nnc(C(=O)NCCCN4CCOCC4)o3)c(C)c2c1"
experimentalreadout = "RP-LC retention time"
unitsofmeasure = "s"
endpointvalue = 668

[[record]]
molecule = "Cc1oc(-c2[nH]ncc2C(=O)N2CCCC2)cc1S(=O)(=O)NCCCc1ccccc1"
experimentalreadout = "RP-LC retention time"
unitsofmeasure = "s"
endpointvalue = 799

[[record]]
molecule = "Cn1cc(CCNC(=O)c2ccccc2Br)c2cccnc21"
experimentalreadout = "RP-LC retention time"
unitsofmeasure = "s"
endpointvalue = 660

[[record]]
molecule = "CC(CCc1ccccc1)NC(=O)c1cc2n(n1)CC(C)(C(=O)NC1CCCC1)N(C)C2=O (stereo not given)"
experimentalreadout = "RP-LC retention time"
unitsofmeasure = "s"
endpointvalue = 844

[[record]]
molecule = "Cc1cc(C)cc(NC(=O)N2CCCC2c2nc(-c3ccccc3C)no2)c1 (stereo not given)"
experimentalreadout = "RP-LC retention time"
unitsofmeasure = "s"
endpointvalue = 1110

[[record]]
molecule = "Cc1ccn2cc(-c3ccc(NC(=O)C4CCCCC4)cc3)nc2n1"
experimentalreadout = "RP-LC retention time"
unitsofmeasure = "s"
endpointvalue = 657

[[record]]
molecule = "Cc1ccc2c(c1)N(S(C)(=O)=O)CCC(C(=O)NCc1ccccc1)O2 (stereo not given)"
experimentalreadout = "RP-LC retention time"
unitsofmeasure = "s"
endpointvalue = 875

[[record]]
molecule = "COc1ccc(-c2noc(Cn3c(=O)n(CC4CCCO4)c(=O)c4ccccc43)n2)cc1OC (stereo not given)"
experimentalreadout = "RP-LC retention time"
unitsofmeasure = "s"
endpointvalue = 828

[[record]]
molecule = "O=C(NCc1ccc(F)cc1)NC1CCCN(c2cc(-c3ccncc3)[nH]n2)C1 (stereo not given)"
experimentalreadout = "RP-LC retention time"
unitsofmeasure = "s"
endpointvalue = 610

[[record]]
molecule = "CCOC(=O)C1=C(C)NC2=C(C(=O)CCC2)C1c1ccc(OC)c(OC)c1OC (stereo not given)"
experimentalreadout = "RP-LC retention time"
unitsofmeasure = "s"
endpointvalue = 727

[[record]]
molecule = "O=C(Nc1ccc2c(c1)OCCO2)N1CCCCCC1CN1CCOCC1 (stereo not given)"
experimentalreadout = "RP-LC retention time"
unitsofmeasure = "s"
endpointvalue = 611

[[record]]
molecule = "Cc1sc(NC(=O)c2ccccc2Br)nc1-c1ccc2c(c1)N(C)C(=O)CO2"
experimentalreadout = "RP-LC retention time"
unitsofmeasure = "s"
endpointvalue = 960

[[record]]
molecule = "O=C(COc1ccccc1)N1CCC(CNS(=O)(=O)c2ccc(Cl)s2)CC1"
experimentalreadout = "RP-LC retention time"
unitsofmeasure = "s"
endpointvalue = 843


---

Experiment: gradient 5% acetonitrile 3 min, to 50% in 2 min, to 85% in 15 min, held 3 min, 100 µL/min
Settings: column: Zorbax Extend-C18 2.1 x 50 mm; eluents: water / acetonitrile, 0.1% formic acid
met if RP-LC retention time is below 700 s. not met if not; exact matches included in not met.

[[record]]
smilesrecord = "CCOC(=O)c1c(S(=O)(=O)N2CCC(C(=O)NCc3ccccc3OC)CC2)c(C)n(C)c1C"
classname = "not met"

[[record]]
smilesrecord = "Cc1cccc(NC(=O)Nc2nc(C)c(C(=O)NCc3ccc4c(c3)OCO4)s2)c1"
classname = "not met"

[[record]]
smilesrecord = "Cc1ccc(Cl)cc1NC(=O)N1CCN(c2ccc(=O)n(-c3ccccc3)n2)CC1"
classname = "not met"

[[record]]
smilesrecord = "CCCn1cnc2cc(CNC(=O)Cc3cccc(Cl)c3)ccc21"
classname = "met"

[[record]]
smilesrecord = "CC(C)Cn1nc(CNC(=O)c2ccccn2)c2ccccc21"
classname = "not met"

[[record]]
smilesrecord = "Cc1ccc(NC(=O)N2CCc3nc[nH]c3C2)cc1Cl"
classname = "met"

[[record]]
smilesrecord = "O=C(Nc1nnc(C2=COCCO2)o1)c1ccco1"
classname = "met"

